Target: DNA-PK phosphorylation at Serine 2056 (Homo sapiens, UniProt P78527)
Construct: host or cells: FaDu
Assay: Cellular Assay for Inhibition of DNA-PK Phosphorylation at Serine 2056 (FaDu cells, neocarzinostatin, sandwich ELISA)
Assay type: cell-based
Conditions: Table 1
VALUE_TYPE: IC50

[[record]]
compound = "Nc1cnc2cc(N3CCOCC3)nc(O[C@H]3CC[C@@H](n4ccnc4)CC3)c2c1 [Compound 160]"
result = "100 to 1000 nM"

[[record]]
compound = "Cn1ccc(N[C@H]2CC[C@@H](Oc3nc(N4CCOCC4)cc4ncccc34)CC2)n1 [Compound 30]"
result = "100 to 1000 nM"

[[record]]
compound = "CCOCCOc1cnc(N[C@H]2CC[C@@H](Oc3nc(N4CCOCC4)cc4ncc(Br)cc34)CC2)nc1 [Compound 18b]"
result = "10000 to 30000 nM"


q: So what does the record say about IC50 for O=C(N[C@H]1CC[C@@H](Oc2nc(N3CCOCC3)cc3ncccc23)CC1)c1cncnc1 [Compound 122] ?
a: 100 to 1000 nM
